The origin of these recorded values is ChEMBL document CHEMBL4665900.

Overview of recorded IC50 for various compounds
# TEST TARGET: Serine/threonine-protein kinase/endoribonuclease IRE1 (Homo sapiens, UniProt O75460)
# Sequence (O75460 whole entry): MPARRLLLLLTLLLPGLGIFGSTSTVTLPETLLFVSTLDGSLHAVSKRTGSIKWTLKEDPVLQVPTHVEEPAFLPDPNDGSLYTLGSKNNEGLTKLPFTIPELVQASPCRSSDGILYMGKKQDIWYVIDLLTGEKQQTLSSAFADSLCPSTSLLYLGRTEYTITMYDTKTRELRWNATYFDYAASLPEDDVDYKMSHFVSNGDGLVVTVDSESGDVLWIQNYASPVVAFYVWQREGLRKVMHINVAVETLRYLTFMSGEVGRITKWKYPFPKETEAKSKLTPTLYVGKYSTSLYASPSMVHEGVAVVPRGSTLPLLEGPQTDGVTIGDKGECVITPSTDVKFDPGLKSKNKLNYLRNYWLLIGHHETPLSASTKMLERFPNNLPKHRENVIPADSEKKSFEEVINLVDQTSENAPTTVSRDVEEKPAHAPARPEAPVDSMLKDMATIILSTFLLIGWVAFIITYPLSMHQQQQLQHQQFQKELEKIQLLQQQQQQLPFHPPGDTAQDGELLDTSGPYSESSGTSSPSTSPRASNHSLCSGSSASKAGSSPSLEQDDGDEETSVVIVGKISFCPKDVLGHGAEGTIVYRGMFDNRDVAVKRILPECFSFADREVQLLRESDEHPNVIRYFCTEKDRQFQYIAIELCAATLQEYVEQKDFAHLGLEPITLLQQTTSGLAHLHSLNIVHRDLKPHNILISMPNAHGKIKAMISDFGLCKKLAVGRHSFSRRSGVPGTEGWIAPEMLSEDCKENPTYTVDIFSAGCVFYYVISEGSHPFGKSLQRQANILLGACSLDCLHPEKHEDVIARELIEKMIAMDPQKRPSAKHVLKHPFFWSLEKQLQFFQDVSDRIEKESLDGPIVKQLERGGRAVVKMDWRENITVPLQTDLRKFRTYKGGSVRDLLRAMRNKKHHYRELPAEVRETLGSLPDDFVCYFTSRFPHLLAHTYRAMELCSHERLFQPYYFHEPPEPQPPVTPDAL
# PROTOCOL SUMMARY: Inhibition of human His-tagged IRE1alpha expressed in Sf9 insect cells preincubated for 1 hr followed by Alexa fluor 647-labeled probe addition and measured after 1 hr by TR-FRET assay
Give the quantity in nM, number only.

Please review the following examples before continuing.
CC(C)n1c(=O)c(-c2ccc(NS(=O)(=O)Cc3ccc(C#N)cc3)c(F)c2)nc2cnc(N[C@@H]3CNC[C@@H](F)C3)nc21; 0.1
CC(C)n1c(=O)c(-c2cc(F)c(NS(=O)(=O)CC3(C(F)(F)F)CC3)c(F)c2)nc2cnc(N[C@H]3CC[C@H](N(C)C)CC3)nc21; 0.1
CC(C)n1c(=O)c(-c2c(F)cc(NS(=O)(=O)Cc3ccc(F)cc3)cc2F)cc2cnc(N[C@H]3CC[C@H](N(C)C)CC3)nc21; 0.08

Consider the additional compound presented here.
The reported value for COCCN(C)[C@H]1CC[C@H](Nc2ncc3cc(-c4ccc(NS(=O)(=O)Cc5ccc(F)cc5)c(F)c4)c(=O)n(C(C)C)c3n2)CC1 in terms of IC50 is 0.05
